# Tested on: EKVX NSCLC
# assay.details: NCI tumour cell line growth inhibition, 48 h
Square brackets hold non-standard residues; d marks the D form. Peptide text beside a SMILES is read from it. * marks the point of attachment. Boc = CC(C)(C)OC(=O)*; OBn = c1ccc(CO*)cc1
measured.attribute: TGI

Consider the reported TGI for these compounds:
# compound, TGI
measured = [
    ("Oc1c(Br)cc(Br)c2ccc(Cn3cc(-c4ccc(C(F)(F)F)cc4)nn3)nc12", "20.9 µM"),
    ("O=C1Nc2ccccc2/C1=C\\c1c(-c2ccccc2)nc2ccccn12", "> 100 µM"),
]

Query block: Please report TGI for the following compound: NC1=NC(=O)[C@H](Cc2c[nH]c3ccccc23)N1C(=O)OCc1ccccc1
Result block: > 100 µM

Query block: Please report TGI for the following compound: Cc1nc2ccccc2nc1NNc1ccccc1
Result block: 68.2 µM

Query block: Please report TGI for the following compound: CCOC(=O)CCc1cccc2c1oc1c(CCNC(=O)OCC3c4ccccc4-c4ccccc43)cccc12
Result block: > 100 µM

Query block: Please report TGI for the following compound: CCOc1ccc([Se][Se]c2ccc(OCC)cc2)cc1
Result block: > 100 µM

Query block: Please report TGI for the following compound: O=C(/C=C/c1ccc(O)c(O)c1)OCCCOC(=O)/C=C/c1ccc(O)c(O)c1
Result block: > 100 µM

Query block: Please report TGI for the following compound: O=C1CC[C@H](NC(=O)Cc2ccccc2)C(=O)N1
Result block: > 1250 µM

Query block: Please report TGI for the following compound: O=C(Cc1cc[n+]([O-])cc1)C(=O)Nc1cc(Cl)c(Cl)cc1Cl
Result block: > 100 µM

Query block: Please report TGI for the following compound: C[C@@H](NC(=O)CNC(=O)OC(C)(C)C)C(=O)N[C@@H](Cc1ccccc1)C(=O)OCc1ccccc1 (Boc-Gly-[dA]-Phe-OBn)
Result block: > 100 µM

Query block: Please report TGI for the following compound: CC[C@H](C)[C@H](NC(=O)c1ccccn1)C(=O)N(C)[C@H](C[C@@H](OC(C)=O)c1nc(C(=O)N[C@@H](Cc2ccccc2)C[C@H](C)C(=O)OC)cs1)C(C)C
Result block: > 100 µM

Query block: Please report TGI for the following compound: NS(=O)(=O)c1ccc(NC(=S)/N=C/c2c(O)c3ccccc3oc2=O)cc1
Result block: > 100 µM
